Test: Cytotoxicity against HMVII cells assessed as reduction in cell viability after 48 hrs by MTT assay
Type: cell-based, HMV-2
Settings: human
Endpoint Label: CC50 at 48 h (µM)
The answer is to be given in µM; state only the numeric part.

stdin: // CC50 at 48 h lookup, key: "C[C@H]1[C@H](C)CC[C@]2(C(=O)O)CC[C@]3(C)C(=CC[C@@H]4[C@@]5(C)CC[C@H](O)C(C)(C)[C@@H]5CC[C@]43C)[C@H]12"
stdout: 69.5

====

Experiment: Cytotoxicity against african green monkey Vero cells assessed as reduction in cell viability after 24 hrs by MTT assay
Type: cell-based
Conditions: chlorocebus sabaeus
Endpoint Label: CC50 at 24 h (µM)
Supply the numeric figure in µM, leaving out any unit text.

stdin: Bench note: what CC50 at 24 h did C[C@H]1[C@H](C)CC[C@]2(C(=O)O)CC[C@]3(C)C(=CC[C@@H]4[C@@]5(C)CC[C@H](O)C(C)(C)[C@@H]5CC[C@]43C)[C@H]12 [URSOLIC ACID] show?
stdout: 31.9

====

System: Trichomonas vaginalis
Experiment: Antitrichomonal activity against metronidazole-sensitive Trichomonas vaginalis ATCC 30236 clinical isolate trophozoites assessed as parasite viability after 24 hrs by trypan blue dye based hemocytometry
Assay type: functional, organism-based
Details: ATCC 30236, 24 h
Endpoint Label: pIC50
Please note pIC50 is a logarithmic value: minus log10 of concentration in mol/L. Answer with that number alone.

stdin: // fetch Trichomonas vaginalis pIC50 for C[C@H]1[C@H](C)CC[C@]2(C(=O)O)CC[C@]3(C)C(=CC[C@@H]4[C@@]5(C)CC[C@H](O)C(C)(C)[C@@H]5CC[C@]43C)[C@H]12 [URSOLIC ACID]
stdout: 4.45

====

Experiment: Cytotoxicity against HMVII cells assessed as reduction in cell viability after 24 hrs by MTT assay
Format: cell-based, HMV-2
Conditions: human
Endpoint Label: CC50 at 24 h (µM)
State just the number; it will be interpreted in µM.

stdin: Quick one: CC50 at 24 h of C[C@H]1[C@H](C)CC[C@]2(C(=O)O)CC[C@]3(C)C(=CC[C@@H]4[C@@]5(C)CC[C@H](O)C(C)(C)[C@@H]5CC[C@]43C)[C@H]12 [URSOLIC ACID] ?
stdout: 146

====

Experiment: Cytotoxicity against african green monkey Vero cells assessed as reduction in cell viability after 48 hrs by MTT assay
Format: cell-based
Settings: chlorocebus sabaeus
Endpoint Label: CC50 at 48 h
Please answer using the number first and the unit second.

stdin: Can you look up the measured CC50 at 48 h of "C[C@H]1[C@H](C)CC[C@]2(C(=O)O)CC[C@]3(C)C(=CC[C@@H]4[C@@]5(C)CC[C@H](O)C(C)(C)[C@@H]5CC[C@]43C)[C@H]12" for me?
stdout: 35.9 µM
